FYI, the data here is from patent US20230233569A1.

molecular target: KRAS WT (Homo sapiens, UniProt P01116+P62937); assay: Ras-Raf disruption / FRET / MOA assay (BRAF RBD); format: biochemical; settings: Ras-Raf disruption, with Cyclophilin A; read-out: KRAS WT FRET data IC50
Sequence (P01116 1-169 isoform P01116-2 limits assumed): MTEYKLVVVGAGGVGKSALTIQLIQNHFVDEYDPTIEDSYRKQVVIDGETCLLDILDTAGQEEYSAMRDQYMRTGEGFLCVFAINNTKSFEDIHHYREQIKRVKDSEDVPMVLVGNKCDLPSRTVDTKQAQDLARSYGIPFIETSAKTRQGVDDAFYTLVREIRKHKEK
Sequence (P62937 whole entry): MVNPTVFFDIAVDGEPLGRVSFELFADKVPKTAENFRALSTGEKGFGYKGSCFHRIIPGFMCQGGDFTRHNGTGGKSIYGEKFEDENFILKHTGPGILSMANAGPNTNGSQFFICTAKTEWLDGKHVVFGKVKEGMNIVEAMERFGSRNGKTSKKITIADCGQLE
pIC50: −log10 of the molar value.
pIC50 values for the molecules below.

- MOLECULE: "CCn1c(-c2cccnc2[C@H](C)OC)c2c3cc(ccc31)-c1csc(n1)C[C@H](NC(=O)[C@H](C(C)C)N(C)C(=O)N1CCN(C(=O)[C@H]3CN3)C[C@H]1C)C(=O)N1CCC[C@H](N1)C(=O)OCC(C)(C)C2"
  pIC50: "7.00 to 8.00"
- MOLECULE: "CCn1c(-c2cccnc2[C@H](C)OC)c2c3cc(ccc31)-c1cc(O)cc(c1)C[C@H](NC(=O)[C@H](C1CCCC1)N1CC[C@@]3(CCN(C(=O)[C@H]4CN4)C3)C1=O)C(=O)N1CCC[C@H](N1)C(=O)OCC(C)(C)C2"
  pIC50: "7.00 to 8.00"
- MOLECULE: "CCn1c(-c2cccnc2[C@H](C)OC)c2c3cc(ccc31)-c1csc(n1)C[C@H](NC(=O)[C@H](C(C)C)N(C)C(=O)N1CCN(C(=O)[C@@H]3CN3)[C@H](C)C1)C(=O)N1CCC[C@H](N1)C(=O)OCC(C)(C)C2"
  pIC50: "6.00 to 7.00"
- MOLECULE: "CCn1c(-c2cccnc2[C@H](C)OC)c2c3cc(ccc31)-c1cc(O)cc(c1)C[C@H](NC(=O)[C@@H](COC1CN(C(=O)[C@H]3CN3)C1)C(C)C)C(=O)N1CCC[C@H](N1)C(=O)OCC(C)(C)C2"
  pIC50: "6.00 to 7.00"
- MOLECULE: "CCn1c(-c2cccnc2[C@H](C)OC)c2c3cc(ccc31)-c1cc(O)cc(c1)C[C@H](NC(=O)[C@H](C(C)C)N(C)C(=O)N1CCN(C(=O)[C@@H]3CN3)C(=O)C1)C(=O)N1CCC[C@H](N1)C(=O)OCC(C)(C)C2 [Example 194]"
  pIC50: "6.00 to 7.00"
- MOLECULE: "CCn1c(-c2cnccc2COC)c2c3cc(ccc31)-c1cccc(c1)C[C@H](NC(=O)[C@H](C(C)C)N(C)C(=O)CCN=C=NCCOC)C(=O)N1CCC[C@H](N1)C(=O)OCC(C)(C)C2"
  pIC50: "5.00 to 6.00"
- MOLECULE: "CCn1c(-c2cccnc2[C@H](C)OC)c2c3cc(ccc31)-c1cc(O)cc(c1)C[C@H](NC(=O)[C@H](C(C)C)N(C)C(=O)[C@H]1CCCN(C(=O)[C@H]3CN3)C1)C(=O)N1CCC[C@H](N1)C(=O)OCC(C)(C)C2"
  pIC50: "6.00 to 7.00"
- MOLECULE: "CCn1c(-c2cccnc2[C@H](C)OC)c2c3cc(ccc31)-c1cc(O)cc(c1)C[C@H](NC(=O)[C@H](C(C)C)N(C)C(=O)N1CCN(C(=O)[C@H]3CN3)CC1=O)C(=O)N1CCC[C@H](N1)C(=O)OCC(C)(C)C2 (atropisomer, axis not shown)"
  pIC50: "7.00 to 8.00"
- MOLECULE: "CCn1c(-c2cccnc2[C@H](C)OC)c2c3cc(ccc31)-c1csc(n1)C[C@H](NC(=O)[C@H](C(C)C)N(C)C(=O)N1CCN(C(=O)[C@@H]3CN3)CC1)C(=O)N1CCC[C@H](N1)C(=O)OCC(C)(C)C2"
  pIC50: "7.00 to 8.00"
- MOLECULE: "CCn1c(-c2cccnc2[C@H](C)OC)c2c3cc(ccc31)-c1cc(O)cc(c1)C[C@H](NC(=O)[C@H](C(C)C)N1CC[C@@]3(CCN(C(=O)[C@H]4CN4)C3)C1=O)C(=O)N1CCC[C@H](N1)C(=O)OCC(C)(C)C2"
  pIC50: "7.00 to 8.00"
- MOLECULE: "CCn1c(-c2cnccc2COC)c2c3cc(ccc31)-c1cccc(c1)C[C@H](NC(=O)[C@H](C(C)C)N(C)C(=O)CCN=C=NCCc1cccs1)C(=O)N1CCC[C@H](N1)C(=O)OCC(C)(C)C2"
  pIC50: "< 5.00"
- MOLECULE: "CCn1c(-c2cccnc2[C@H](C)OC)c2c3cc(ccc31)-c1cc(O)cc(c1)C[C@H](NC(=O)[C@H](C(C)C)N(C)C(=O)C1CCN(S(=O)(=O)[C@H]3CN3C)CC1)C(=O)N1CCC[C@H](N1)C(=O)OCC(C)(C)C2 (single isomer, unassigned)"
  pIC50: "6.00 to 7.00"
- MOLECULE: "CCn1c(-c2cccnc2[C@H](C)OC)c2c3cc(ccc31)-c1csc(n1)C[C@H](NC(=O)[C@H](C(C)C)N(C)C(=O)N(C)CCN(C)C(=O)[C@@H]1CN1)C(=O)N1CCC[C@H](N1)C(=O)OCC(C)(C)C2 (atropisomer, axis not shown)"
  pIC50: "6.00 to 7.00"
- MOLECULE: "CCn1c(-c2cnccc2COC)c2c3cc(ccc31)-c1cccc(c1)C[C@H](NC(=O)[C@H](C(C)C)N(C)C(=O)CCN=C=NCc1ccccc1)C(=O)N1CCC[C@H](N1)C(=O)OCC(C)(C)C2"
  pIC50: "< 5.00"
- MOLECULE: "CCn1c(-c2cccnc2[C@H](C)OC)c2c3cc(ccc31)-c1cc(O)cc(c1)C[C@H](NC(=O)[C@H](C(C)C)N(C)C(=O)N1CC[C@@H](N(C)C(=O)[C@H]3CN3)C1)C(=O)N1CCC[C@H](N1)C(=O)OCC(C)(C)C2 (atropisomer, axis not shown)"
  pIC50: "7.00 to 8.00"
- MOLECULE: "CCn1c(-c2cccnc2[C@H](C)OC)c2c3cc(ccc31)-c1cc(O)cc(c1)C[C@H](NC(=O)[C@H](C(C)C)N(C)C(=O)c1ncc(NC(=O)[C@H]3CN3)n1C)C(=O)N1CCC[C@H](N1)C(=O)OCC(C)(C)C2"
  pIC50: "6.00 to 7.00"

###

IC50 values for the compounds below.
molecular target: KRAS G12S (Homo sapiens, UniProt P01116+P62937, G12S); assay: Disruption of BRAF RBD interaction with Ras (FRET / MOA assay, with Cyclophilin A); format: biochemical; conditions: read-out: KRAS G12S FRET data, IC50
Sequence (P01116 1-169 isoform P01116-2 G12S limits assumed): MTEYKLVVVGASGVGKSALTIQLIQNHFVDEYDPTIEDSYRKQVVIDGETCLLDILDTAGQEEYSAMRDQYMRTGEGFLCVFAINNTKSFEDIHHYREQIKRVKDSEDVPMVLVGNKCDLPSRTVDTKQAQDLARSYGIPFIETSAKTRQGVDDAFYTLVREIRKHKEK
Sequence (P62937 whole entry): as the sequence (P62937 whole entry) above

- COMPOUND: "C=CC(=O)N1CC[C@H](C(=O)N(C)[C@H](C(=O)N[C@H]2Cc3nc(cs3)-c3ccc4c(c3)c(c(-c3cccnc3COC)n4CC)CC(C)(C)COC(=O)[C@@H]3CCCN(N3)C2=O)C(C)C)C1"
  IC50: "> 10000 nM"
- COMPOUND: "CCn1c(-c2cccnc2[C@H](C)OC)c2c3cc(ccc31)-c1cc(O)cc(c1)C[C@H](NC(=O)[C@H](C(C)C)N(C)C(=O)[C@H]1CCN(C(=O)CN)C1)C(=O)N1CCC[C@H](N1)C(=O)OCC(C)(C)C2"
  IC50: "10 to 100 nM"
- COMPOUND: "C=CC(=O)N1CCC(C(=O)N(C)C(C(=O)NC2Cc3nc(cs3)-c3ccc4c(c3)c(c(-c3cccnc3C(C)OC)n4CC)CC(C)(C)COC(=O)C3CCCN(N3)C2=O)C(C)C)C1 (centres unmarked)"
  IC50: "> 10000 nM"
- COMPOUND: "C=CC(=O)N1CC[C@H](C(=O)N(C)[C@H](C(=O)N[C@H]2Cc3cc(O)cc(c3)-c3ccc4c(c3)c(c(-c3cncc(CCN(C)C)c3)n4CC)CC(C)(C)COC(=O)[C@@H]3CCCN(N3)C2=O)C(C)C)C1"
  IC50: "1000 to 10000 nM"
- COMPOUND: "C=C[C@@H]1C[C@]1(N)C(=O)N(C)[C@H](C(=O)N[C@H]1Cc2cc(O)cc(c2)-c2ccc3c(c2)c(c(-c2cccnc2[C@H](C)OC)n3CC)CC(C)(C)COC(=O)[C@@H]2CCCN(N2)C1=O)C(C)C"
  IC50: "100 to 1000 nM"
- COMPOUND: "CCn1c(-c2cccnc2[C@H](C)OC)c2c3cc(ccc31)-c1csc(n1)C[C@H](NC(=O)[C@H](C(C)C)N(C)C(=O)N1CC(S(=O)(=O)NC)C1)C(=O)N1CCC[C@H](N1)C(=O)OCC(C)(C)C2 (atropisomer, axis not shown)"
  IC50: "100 to 1000 nM"
- COMPOUND: "CCn1c(-c2cc(N3CCN(C)CC3)cnc2[C@H](C)OC)c2c3cc(ccc31)-c1csc(n1)C[C@H](NC(=O)[C@H](C1CCCC1)N(C)C(=O)N(C)C)C(=O)N1CCC[C@H](N1)C(=O)OCC(C)(C)C2 (atropisomer, axis not shown)"
  IC50: "10 to 100 nM"
- COMPOUND: "CCn1c(-c2cnccc2COC)c2c3cc(ccc31)-c1cc(O)cc(c1)C[C@H](NC(=O)[C@H](C(C)C)N(C)C(=O)[C@@H]1CCCN(C)C1)C(=O)N1CCC[C@H](N1)C(=O)OCC(C)(C)C2"
  IC50: "100 to 1000 nM"
- COMPOUND: "CCn1c(-c2cnccc2COC)c2c3cc(ccc31)-c1cc(O)cc(c1)C[C@H](NC(=O)[C@H](C(C)C)N(C)C(=O)[C@@H]1CCCO1)C(=O)N1CCC[C@H](N1)C(=O)OCC(C)(C)C2"
  IC50: "100 to 1000 nM"
- COMPOUND: "CCn1c(-c2cccnc2[C@H](C)OC)c2c3cc(ccc31)-c1csc(n1)C[C@H](NC(=O)[C@H](C(C)C)N(C)C(=O)N(C)C[C@@H]1CCCN1C)C(=O)N1CCC[C@H](N1)C(=O)OCC(C)(C)C2"
  IC50: "1000 to 10000 nM"
- COMPOUND: "CCn1c(-c2cnccc2COC)c2c3cc(ccc31)-c1cc(O)cc(c1)C[C@H](NC(=O)[C@H](C(C)C)N1CCCCC1=O)C(=O)N1CCC[C@H](N1)C(=O)OCC(C)(C)C2"
  IC50: "1000 to 10000 nM"
- COMPOUND: "CCn1c(-c2cccnc2[C@H](C)OC)c2c3cc(ccc31)-c1cc(O)cc(c1)C[C@H](NC(=O)[C@H](C(C)C)N(C)C(=O)OC1CC1)C(=O)N1CCC[C@H](N1)C(=O)OCC(C)(C)C2"
  IC50: "100 to 1000 nM"
- COMPOUND: "CCn1c(-c2cccnc2[C@H](C)OC)c2c3cc(ccc31)-c1csc(n1)[C@@H](O)[C@H](NC(=O)[C@H](C(C)C)N(C)C(=O)N1CC(N(C)C)C1)C(=O)N1CCC[C@H](N1)C(=O)OCC(C)(C)C2 (atropisomer, axis not shown)"
  IC50: "100 to 1000 nM"
- COMPOUND: "C=CC(=O)N1CC[C@H](C(=O)N(C)[C@H](C(=O)N[C@H]2Cc3cc(O)cc(c3)-c3ccc4c(c3)c(c(-c3cccnc3N3CC(OC)C3)n4CC)CC(C)(C)COC(=O)[C@@H]3CCCN(N3)C2=O)C(C)C)C1"
  IC50: "1000 to 10000 nM"
- COMPOUND: "CCn1c(-c2cccnc2[C@H](C)OC)c2c3cc(ccc31)-c1csc(n1)C[C@H](NC(=O)[C@H](C(C)C)N(C)C(=O)N1CCC13CCOCC3)C(=O)N1CCC[C@H](N1)C(=O)OCC(C)(C)C2 (atropisomer, axis not shown)"
  IC50: "100 to 1000 nM"
- COMPOUND: "CCn1c(-c2cccnc2[C@H](C)OC)c2c3cc(ccc31)-c1csc(n1)C[C@H](NC(=O)[C@H](C(C)C)N(C)C(=O)N1CC(C#N)(N(C)C)C1)C(=O)N1CCC[C@H](N1)C(=O)OCC(C)(C)C2"
  IC50: "100 to 1000 nM"
- COMPOUND: "CCn1c(-c2cccnc2[C@H](C)OC)c2c3cc(ccc31)-c1csc(n1)C[C@H](NC(=O)[C@H](C(C)C)N(C)C(=O)N1CCC3(CCN(C)CC3)C1)C(=O)N1CCC[C@H](N1)C(=O)OCC(C)(C)C2 (atropisomer, axis not shown)"
  IC50: "10 to 100 nM"
